Tested on: Glutamate receptor ionotropic, NMDA 3A (GRIN3A) ligand-binding domain
EXPERIMENT: binders of NR3A ligand-binding domain, primary screen, biophysical, differential scanning fluorimetry, uHTS (AID 1259313)
SETUP_CONDITIONS: NR3A LBD differential scanning fluorimetry, at 25 µM, 0% = protein alone, 100% = glycine-bound protein
The campaign covered roughly 340,000 compounds. About 8,500 (2.5%) were called active.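 Rule for the calls: active = melting temperature shift of at least 10% of the positive control shift, at one fixed dose; inactive = the rest.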 What follows is part of a selection rich in actives, with near analogues and random picks from the rest.
Returns: one label drawn from yes (1) = active, no (0) = inactive

>>> class_label("Cc1cc(C)cc(OCC(=O)OCC(=O)NC2CCCC2)c1")
"no (0)"

Enquiry: Please let me know the test result on file for COc1cc2[nH]c(=S)n(CCN3CCCCC3C)c(=O)c2cc1OC (stereo not given) .
Return: no (0)

Enquiry: Tell me the assay call for COc1cc(Br)c(-c2sc(Nc3ccccc3)n[n+]2-c2ccccc2)cc1OC please.
Return: no (0)

Enquiry: Which outcome was entered for the molecule CCOc1cccc(SCc2noc(C(=O)NC(C)C)c2C(=O)O)c1 in this test?
Return: no (0)

Enquiry: Returns: the outcome recorded for COc1ccc(C(=O)N2CCCCC2C(=O)Nc2ccc(-n3nc(C)cc3C)cc2)o1 (stereo not given) in this assay.
Return: no (0)

Enquiry: Recorded call for CCc1ccc(Nc2n[n+](-c3ccccc3)c(-c3cccc(Cl)c3Cl)s2)cc1 ?
Return: yes (1)

Enquiry: What is the recorded call for this molecule in the test? Cc1ccc(NC(=O)Cc2nc(COC(=O)C(C)NS(=O)(=O)c3ccc(C)cc3)cs2)cc1 (stereo not given)
Return: no (0)

Enquiry: Kindly provide the recorded test outcome for the following molecule: COc1ccc(CN2CC(C(=O)NC3CCCCC3)CC2=O)cc1 (stereo not given)
Return: no (0)

Enquiry: Assay result, entry COc1ccc(C)cc1Nc1n[n+](-c2ccccc2)c(-c2cccc(Cl)c2Cl)s1 — outcome?
Return: no (0)

Enquiry: Can you look up the reported call for COCCNC(=O)c1onc(CSc2cccc(C)c2)c1C(=O)O for me?
Return: yes (1)

---

Entries and their Tm shift relative to glycine control
Test system: Glutamate receptor ionotropic, NMDA 3A (GRIN3A) ligand-binding domain
EXPERIMENT: binders of NR3A ligand-binding domain, primary screen, biophysical, differential scanning fluorimetry, uHTS (AID 1259313)
SETUP_CONDITIONS: NR3A LBD differential scanning fluorimetry, at 25 µM, hits give high values, 0% = protein alone, 100% = glycine-bound protein
The whole screen tested about 340,000 compounds, of which about 8,500 (2.5%) were called active. This excerpt belongs to a sample that is enriched for actives.

Sample records with Tm shift relative to glycine control:
>>> observed_measurement("COc1cccc(N(Cc2nnc3n2CCCCC3)C(=O)Nc2ccccc2F)c1")
"0.08% (inactive)"
>>> observed_measurement("CCOC(=O)N1CCN(Cc2nnc(-c3ccccc3Cl)o2)CC1")
"0.35% (inactive)"
>>> observed_measurement("O=C(COC(=O)c1ccc(Cl)nc1)NCc1ccc2c(c1)OCO2")
"-1.93% (inactive)"
>>> observed_measurement("CCCCCN(C(=O)CCC(=O)OCC(=O)NC1CCC(C)CC1)c1c(N)n(CCCC)c(=O)[nH]c1=O (stereo unspecified)")
"-0.6% (inactive)"
>>> observed_measurement("Cc1noc(C)c1CSCC(=O)Nc1nc2ccc(Oc3ccccc3)cc2s1")
"0.97% (inactive)"
>>> observed_measurement("COc1ccc(CNC(=O)c2ccc(Br)s2)cc1OC")
"1.11% (inactive)"
>>> observed_measurement("CCOC(=O)C(=Cc1ccccc1OC)C(=O)OCC")
"0.09% (inactive)"
>>> observed_measurement("Cc1nc2ccc(NC(=O)C3CCCCC3)cc2s1")
"-3.66% (inactive)"
>>> observed_measurement("COC(=O)c1c(-c2ccsc2)oc2ccc(-c3cc(OC)c(OC)c(OC)c3)cc12")
"14.2% (active)"
>>> observed_measurement("O=C(Nc1ccccc1C(=O)N1CCOCC1)C1CCC(=O)N1C1CCCC1 (stereo unspecified)")
"-0.29% (inactive)"

Record O=C(CC1C(=O)NCCN1CC(c1ccccc1)c1ccccc1)NCCc1cn[nH]c1 (stereo unspecified) / Glutamate receptor ionotropic, NMDA 3A (GRIN3A) ligand-binding domain, Tm shift relative to glycine control recorded as -1% (inactive)
